target: P. aeruginosa MetRS (Pseudomonas aeruginosa, UniProt Q9HYC7); experiment: tRNA aminoacylation assay in SPA format; format: biochemical
Sequence (Q9HYC7 whole entry): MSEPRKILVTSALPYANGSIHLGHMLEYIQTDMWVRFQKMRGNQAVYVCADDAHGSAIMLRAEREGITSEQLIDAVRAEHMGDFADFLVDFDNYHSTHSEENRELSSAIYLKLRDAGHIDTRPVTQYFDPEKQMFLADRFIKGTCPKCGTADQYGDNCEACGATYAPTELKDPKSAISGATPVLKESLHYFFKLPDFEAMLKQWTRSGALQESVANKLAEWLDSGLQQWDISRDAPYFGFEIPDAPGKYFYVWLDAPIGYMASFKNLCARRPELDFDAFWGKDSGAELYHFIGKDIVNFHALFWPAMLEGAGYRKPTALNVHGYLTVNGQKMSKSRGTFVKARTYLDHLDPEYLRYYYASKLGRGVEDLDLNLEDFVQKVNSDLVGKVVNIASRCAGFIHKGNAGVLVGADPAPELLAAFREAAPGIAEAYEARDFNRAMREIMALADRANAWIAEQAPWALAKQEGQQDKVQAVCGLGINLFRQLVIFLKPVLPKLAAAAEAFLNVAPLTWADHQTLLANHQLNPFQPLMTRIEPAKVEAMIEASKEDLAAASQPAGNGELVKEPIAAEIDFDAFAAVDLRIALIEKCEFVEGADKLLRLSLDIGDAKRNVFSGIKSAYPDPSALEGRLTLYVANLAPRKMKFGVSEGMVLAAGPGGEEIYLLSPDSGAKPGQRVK
measure_name: IC50 (µM)

| smiles_representation | measure_name | data_value |
| --- | --- | --- |
| O=c1cc(-c2cc(O)c(O)c(O)c2)oc2cc(O)cc(O)c12 | IC50 | 8.3 |

All figures here come from paper PMC5788008.
